Assay target: T1, DSG2 on cells (HeLa cells in the viral inhibition assay; HT29 cells in the shedding assay) (UniProt Q14126 50-1118)
T1 sequence: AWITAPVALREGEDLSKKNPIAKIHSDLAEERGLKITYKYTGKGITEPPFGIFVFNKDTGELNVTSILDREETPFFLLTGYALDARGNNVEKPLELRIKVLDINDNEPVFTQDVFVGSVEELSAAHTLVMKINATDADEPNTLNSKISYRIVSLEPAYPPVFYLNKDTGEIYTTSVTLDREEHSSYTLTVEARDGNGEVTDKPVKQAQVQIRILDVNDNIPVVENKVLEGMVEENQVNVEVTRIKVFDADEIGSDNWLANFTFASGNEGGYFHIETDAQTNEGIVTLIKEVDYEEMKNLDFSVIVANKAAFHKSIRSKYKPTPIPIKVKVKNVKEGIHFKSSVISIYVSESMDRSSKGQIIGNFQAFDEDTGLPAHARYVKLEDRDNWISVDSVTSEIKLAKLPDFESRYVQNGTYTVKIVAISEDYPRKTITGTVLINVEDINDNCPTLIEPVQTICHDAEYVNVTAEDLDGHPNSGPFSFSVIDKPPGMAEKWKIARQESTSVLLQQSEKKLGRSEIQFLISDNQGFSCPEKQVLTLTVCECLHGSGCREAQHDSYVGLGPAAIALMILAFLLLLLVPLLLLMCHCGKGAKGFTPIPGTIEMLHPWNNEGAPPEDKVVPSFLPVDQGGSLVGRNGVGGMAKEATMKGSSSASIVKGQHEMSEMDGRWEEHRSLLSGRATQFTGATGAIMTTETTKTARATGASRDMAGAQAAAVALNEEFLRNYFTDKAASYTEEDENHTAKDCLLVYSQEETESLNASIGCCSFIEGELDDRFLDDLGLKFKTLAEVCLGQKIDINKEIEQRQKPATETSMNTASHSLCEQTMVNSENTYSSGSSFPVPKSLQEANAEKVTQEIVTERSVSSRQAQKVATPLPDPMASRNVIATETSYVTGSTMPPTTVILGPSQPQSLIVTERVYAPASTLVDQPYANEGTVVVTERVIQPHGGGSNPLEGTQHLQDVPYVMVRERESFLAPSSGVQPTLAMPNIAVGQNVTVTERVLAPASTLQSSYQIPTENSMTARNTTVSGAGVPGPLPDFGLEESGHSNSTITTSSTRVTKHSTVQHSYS
Test details: cell-based or functional assay
This section presents binders with their documented VIA IC50 values.
Please reply with the bare figure in µg/mL and do not write the unit itself.

Example cases with answers are listed next.
Binder	VIA IC50 / µg/mL
GB7/JOC-x (designed binder, also called GB7 (ΔDD)) RGSHHHHHHGSKNSIALKNNTLWTGPKPEANSIIEYGKQNPDSKLTLILVKNGGIVNGYVTLMGASDYVNTLFKNKNVSINVELYFDATGHILPDSSSLKTDLELKYKQTADFSARGFMPSTTAYPFDLPNAGTHNENYIFGQSYYKASDGALFPLEVTVMLNKRLPDSRTSYVMTFLWSLNAGLAPETTQATLITSPFTFSYIREDDGGGSGGGSGGGSC	0.032
GB10 (designed binder) MRGSHHHHHHCGSKVSALKEKVSALKEKVSALKEKVSALKEKVSALKEGSGGGSGGGSGGGSNSIALKNNTLWTGPKPEANSIIEYGKQNPDSKLTLILVKNGGIVNGYVTLMGASDYVNTLFKNKNVSINVELYFDATGHILPDSSSLKTDLELKYKQTADFSARGFMPSTTAYPFVLPNAGTHNENYIFGQSYYKASDGALFPLEVTVMLNKRLPDSRTSYVMTFLWSLNAGLAPETTQATLITSPFTFSYIREDD	0.026
GB5 (designed binder) MRGSHHHHHHGSKNSIALKNNTLWTGPKPEANSIIEYGKQNPDSKLTLILVKNGGIVNGYVTLMGASDYVNTLFKNKNVSINVELYFDATGHILPDSSSLKTDLELKYKQTADFSARGFMPSTTAYPFVLPNAGTHNENYIFGQSYYKASDGALFPLEVTVMLNKRLPDSRTSYVMTFLWSLNAGLAPETTQATLITSPFTFSYIREDD	0.241

Could you now look at the following binder, please?
Ask: Give the measured VIA IC50 for GB3 (designed binder) MRGSHHHHHHGSKVSALKEKVSALKEKVSALKEKVSALKEKVSALKEGSGGGSGGGSGGGSNSIALKNNTLWTGPKPEANSIIEYGKQNPDSKLTLILVKNGGIVNGYVTLMGASDYVNTLFKNKNVSINVELYFDATGHILPDSSSLKTDLELKYKQTADFSARGFMPSTTAYPFDLPNAGTHNENYIFGQSYYKASDGALFPLEVTVMLNKRLPDSRTSYVMTFLWSLNAGLAPETTQATLITSPFTFSYIREDDGGGSGGGSGGGSC
Result: 0.029
